experimentalTarget: 11-beta-hydroxysteroid dehydrogenase type 2 (Homo sapiens)
Sequence (P80365 whole entry): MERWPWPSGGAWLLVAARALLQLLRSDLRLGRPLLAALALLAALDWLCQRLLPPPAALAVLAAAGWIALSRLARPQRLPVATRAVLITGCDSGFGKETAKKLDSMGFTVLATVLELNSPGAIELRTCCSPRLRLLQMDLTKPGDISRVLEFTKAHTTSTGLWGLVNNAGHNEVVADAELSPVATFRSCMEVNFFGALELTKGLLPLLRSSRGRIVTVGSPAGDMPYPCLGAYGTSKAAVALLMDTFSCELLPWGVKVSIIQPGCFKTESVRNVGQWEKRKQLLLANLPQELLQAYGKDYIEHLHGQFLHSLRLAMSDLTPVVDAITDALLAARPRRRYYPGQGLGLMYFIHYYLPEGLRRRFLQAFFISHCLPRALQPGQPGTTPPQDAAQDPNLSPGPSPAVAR
experimentalDetails: Inhibition of human recombinant 11beta-HSD2 expressed in HEK293 cells assessed as conversion of [1,2,6,7-3H]-cortisol to cortisone by scintillation counting

entrySmiles: CC(=O)N[C@H]1CC[C@]2(C)[C@H]3C(=O)C=C4[C@@H]5C[C@@](C)(C(=O)O)CC[C@]5(C)CC[C@@]4(C)[C@]3(C)CC[C@H]2C1(C)C
unitTag: nM
IC50: 458
--
entrySmiles: CON[C@@H]1CC[C@]2(C)[C@H]3C(=O)C=C4[C@@H]5C[C@@](C)(C(=O)O)CC[C@]5(C)CC[C@@]4(C)[C@]3(C)CC[C@H]2C1(C)C
unitTag: nM
IC50: 4.9
--
entrySmiles: CONC(=O)[C@@]1(C)CC[C@]2(C)CC[C@]3(C)C(=CC(=O)[C@@H]4[C@@]5(C)CC[C@H](O)C(C)(C)[C@@H]5CC[C@]43C)[C@@H]2C1
unitTag: nM
IC50: 2130
--
entrySmiles: CON[C@H]1CC[C@]2(C)[C@H]3C(=O)C=C4[C@@H]5C[C@@](C)(C(=O)O)CC[C@]5(C)CC[C@@]4(C)[C@]3(C)CC[C@H]2C1(C)C
unitTag: nM
IC50: 14.5

----------
As shown below, each of these molecules has a reported Activity value.
experimentalTarget: 11-beta-hydroxysteroid dehydrogenase type 2 (Homo sapiens)
Sequence (whole entry): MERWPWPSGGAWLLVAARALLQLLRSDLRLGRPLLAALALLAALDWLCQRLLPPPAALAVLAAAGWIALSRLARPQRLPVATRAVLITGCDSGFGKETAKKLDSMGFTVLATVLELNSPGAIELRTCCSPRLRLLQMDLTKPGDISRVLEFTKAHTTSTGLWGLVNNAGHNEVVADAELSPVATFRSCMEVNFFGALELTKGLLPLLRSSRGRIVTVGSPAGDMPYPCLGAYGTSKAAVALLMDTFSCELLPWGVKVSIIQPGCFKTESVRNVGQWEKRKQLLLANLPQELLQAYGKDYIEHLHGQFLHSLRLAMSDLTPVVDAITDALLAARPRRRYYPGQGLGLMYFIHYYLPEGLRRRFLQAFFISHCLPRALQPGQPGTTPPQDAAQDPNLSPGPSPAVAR
experimentalDetails: Inhibition of human recombinant 11beta-HSD2 expressed in HEK293 cells assessed as residual conversion of [1,2,6,7-3H]-cortisol to cortisone at 0.2 uM by scintillation counting
Assay type: cell-based
testReadout: Activity (%)

entrySmiles: CN(O)C(=O)[C@@]1(C)CC[C@]2(C)CC[C@]3(C)C(=CC(=O)[C@@H]4[C@@]5(C)CC[C@@H](NS(=O)(=O)C(F)(F)F)C(C)(C)[C@@H]5CC[C@]43C)[C@@H]2C1
unitTag: %
readoutValue: 82

entrySmiles: CN(O)C(=O)[C@@]1(C)CC[C@]2(C)CC[C@]3(C)C(=CC(=O)[C@@H]4[C@@]5(C)CC[C@H](O)C(C)(C)[C@@H]5CC[C@]43C)[C@@H]2C1
unitTag: %
readoutValue: 7

entrySmiles: CON[C@H]1CC[C@]2(C)[C@H]3C(=O)C=C4[C@@H]5C[C@@](C)(C(=O)O)CC[C@]5(C)CC[C@@]4(C)[C@]3(C)CC[C@H]2C1(C)C
unitTag: %
readoutValue: 2

entrySmiles: CC(=O)O[C@H]1CC[C@]2(C)[C@H]3C(=O)C=C4[C@@H]5C[C@@](C)(C(=O)N(O)C(C)(C)C)CC[C@]5(C)CC[C@@]4(C)[C@]3(C)CC[C@H]2C1(C)C
unitTag: %
readoutValue: 85

entrySmiles: CON[C@@H]1CC[C@]2(C)[C@H]3C(=O)C=C4[C@@H]5C[C@@](C)(C(=O)O)CC[C@]5(C)CC[C@@]4(C)[C@]3(C)CC[C@H]2C1(C)C
unitTag: %
readoutValue: 5
